Items are presented alongside their recorded koff.
- SYSTEM_UNDER_TEST: T1, Macaca fascicularis IL2Rγ extracellular domain expressed with a C-terminal myc-myc-hexahistidine tag (Macaca fascicularis)
- T1 construct: also called mfIL-2Rg-MMH; mfIL-2RG-MMH
- T1 chain: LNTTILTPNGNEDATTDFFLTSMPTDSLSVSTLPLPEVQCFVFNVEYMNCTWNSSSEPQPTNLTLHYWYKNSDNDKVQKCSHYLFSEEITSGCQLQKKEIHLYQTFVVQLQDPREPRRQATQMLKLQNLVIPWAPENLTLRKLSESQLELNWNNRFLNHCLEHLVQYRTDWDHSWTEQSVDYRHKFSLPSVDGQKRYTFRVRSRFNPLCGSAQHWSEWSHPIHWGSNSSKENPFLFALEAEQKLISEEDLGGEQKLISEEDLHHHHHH
- TEST_SUMMARY: SPR Biacore 4000, mAb captured by anti-hFc, 37C, dissociation in PBS-T pH 7.4
- Description: The dissociation rate constant (kd) for binding of IL-2Rγ reagents to purified anti-IL2Rγ monoclonal antibodies was determined using a real-time surface plasmon resonance based Biacore 4000 biosensor platform. […] Dissociation rate constants (kd) in two running buffers were determined by fitting the real-time binding sensorgrams to a 1:1 binding model using Scrubber 2.0c curve-fitting software. […]
Write down the numeric answer in s⁻¹ and omit the unit.

Previously resolved entries follow.
binder="H4H12874P (antibody, human IgG4 S228P, kappa, V domains shown, anti-IL2Rγ monoclonal antibody expressed with human IgG4 Fc) VH: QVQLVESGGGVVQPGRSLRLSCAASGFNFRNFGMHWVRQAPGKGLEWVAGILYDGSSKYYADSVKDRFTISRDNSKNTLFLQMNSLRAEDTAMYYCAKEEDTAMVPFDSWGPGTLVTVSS VL: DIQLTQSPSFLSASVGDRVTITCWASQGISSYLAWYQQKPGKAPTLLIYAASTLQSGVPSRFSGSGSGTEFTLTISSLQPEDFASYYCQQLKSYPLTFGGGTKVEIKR" unit_info=s⁻¹ test_result=0.000541
binder="H4H12863P (antibody, human IgG4 S228P, kappa, V domains shown, anti-IL2Rγ monoclonal antibody expressed with human IgG4 Fc) VH: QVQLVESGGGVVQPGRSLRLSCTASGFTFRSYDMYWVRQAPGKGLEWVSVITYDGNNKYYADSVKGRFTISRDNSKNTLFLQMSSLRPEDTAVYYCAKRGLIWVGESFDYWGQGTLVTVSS VL: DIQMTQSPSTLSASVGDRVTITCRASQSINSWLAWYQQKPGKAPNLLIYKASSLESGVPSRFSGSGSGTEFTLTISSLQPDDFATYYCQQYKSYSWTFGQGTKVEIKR" unit_info=s⁻¹ test_result=0.000606

// below: koff requested for another binder
Bench note: what koff did H4H12890P (antibody, human IgG4 S228P, kappa, V domains shown, anti-IL2Rγ monoclonal antibody expressed with human IgG4 Fc) VH: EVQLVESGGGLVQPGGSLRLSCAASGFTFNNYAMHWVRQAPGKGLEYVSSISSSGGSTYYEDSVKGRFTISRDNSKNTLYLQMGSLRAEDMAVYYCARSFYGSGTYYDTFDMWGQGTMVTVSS VL: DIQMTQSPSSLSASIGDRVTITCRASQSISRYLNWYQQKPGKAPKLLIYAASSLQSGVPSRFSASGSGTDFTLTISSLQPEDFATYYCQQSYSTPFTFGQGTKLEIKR show?
0.000624
